Data provenance: patent US6528535B2

# system-name: SF9 affinity purified rat FPT (Rattus norvegicus, UniProt Q02293+Q04631)
# Construct: made in house; host or cells: Sf9 insect cells
# test-protocol: PFT (farnesyl protein transferase) inhibitory activity, radiolabeled farnesyl pyrophosphate / biotinyl peptide bead assay
# Assay type: biochemical
# run-conditions: average of two tests unless n is given in parentheses; read-out: FTase, IC50
Counter-ions that a name gives are not always drawn.
Measured log10 of IC50, listed per entry for reference.
In our notation, the value equals log10 of IC50 in µM.

In [3]: df
Out[3]:
                                   compound  recorded_measurement
0  O=C1C(=Cc2ccncc2)CCc2cc(OCCn3ccnc3)ccc21 [Example 6]                  0.10

Enquiry: Consider the compound O=C1C(=Cc2cccs2)CCc2cc(OC(Cn3ccnc3)c3ccccc3)ccc21 (stereo not drawn) [Example 81] and give its measured log10 of IC50.
Return: -1.43

Enquiry: Consider the compound O=C1C(=Cc2cc(Br)cs2)CCc2cc(OCCn3ccnc3)ccc21 [Example 17] and give its measured log10 of IC50.
Return: -1.00

Enquiry: Consider the compound O=C1C(=Cc2ccco2)CCc2cc(OCCc3c[nH]cn3)ccc21 [Example 41] and give its measured log10 of IC50.
Return: -0.72

Enquiry: Consider the compound O=C1CCCc2cc(OCCc3c[nH]cn3)ccc21 [Example 27, monohydrochloride] and give its measured log10 of IC50.
Return: 0.25

Enquiry: Consider the compound O=C1C(=Cc2ccsc2)CCc2cc(OCCc3c[nH]cn3)ccc21 [Example 28] and give its measured log10 of IC50.
Return: -0.77

Enquiry: Consider the compound ON=C1CCCc2cc(OCCn3ccnc3)ccc21 [Example 53] and give its measured log10 of IC50.
Return: 0.48

Enquiry: Consider the compound CSc1ccc(C=C2CCc3cc(OCCn4ccnc4)ccc3C2=O)cc1 [Example 4] and give its measured log10 of IC50.
Return: -1.11

Enquiry: Consider the compound O=C1C(=Cc2ccccc2)CCc2cc(OCCn3ccnc3)ccc21 [Example 9] and give its measured log10 of IC50.
Return: -0.62

---

Measured melting point, listed per entry for reference.
Structures can show the parent of a compound that is named as a salt.

Enquiry: Consider the molecule `O=C1C(=Cc2ccc([N+](=O)[O-])s2)CCc2cc(OCCn3ccnc3)ccc21` and give its measured melting point.
Return: > 240 °C

Enquiry: Consider the molecule O=C1CC(c2ccccc2)Oc2cc(OCCn3ccnc3)ccc21 (stereo not shown) and give its measured melting point.
Return: 139 to 140 °C

Enquiry: Consider the molecule `O=C1C(=Cc2ccco2)CCc2cc(OCCn3ccnc3)ccc21` and give its measured melting point.
Return: 109 to 110 °C

Enquiry: Consider the molecule `COc1ccc(C=C2CCc3cc(OCCn4ccnc4)ccc3C2=O)cc1` and give its measured melting point.
Return: 132 to 133 °C

Enquiry: Consider the molecule `O=C1C(=Cc2ccsc2)CCc2cc(OCCc3c[nH]cn3)ccc21` and give its measured melting point.
Return: 94 to 96 °C

Enquiry: Consider the molecule `CSc1ccc(C=C2CCc3cc(OCCc4c[nH]cn4)ccc3C2=O)cc1` and give its measured melting point.
Return: 65 to 70 °C

Enquiry: Consider the molecule `O=C1C(=Cc2sccc2Oc2ccccc2)CCc2cc(OCCn3ccnc3)ccc21` and give its measured melting point.
Return: 135 to 137 °C

Enquiry: Consider the molecule `O=C1C(=Cc2ccc(Br)cc2)CCc2cc(OCCc3c[nH]cn3)ccc21` and give its measured melting point.
Return: 176 to 178 °C

Enquiry: Consider the molecule `Cc1ccsc1C=C1CCc2cc(OCCc3c[nH]cn3)ccc2C1=O` and give its measured melting point.
Return: 191 to 193 °C

Enquiry: Consider the molecule `O=C1/C(=C/c2cccs2)CNc2cc(OCCn3ccnc3)ccc21` and give its measured melting point.
Return: 211 to 213 °C

Enquiry: Consider the molecule `O=C1C(=Cc2ccc(Br)cc2)CCc2cc(OCCn3ccnc3)ccc21` and give its measured melting point.
Return: 152 to 153 °C

Enquiry: Consider the molecule `CSc1ccc(C=C2CCc3cc(OCCn4ccnc4)ccc3C2=O)cc1` and give its measured melting point.
Return: 161 to 161.5 °C

Enquiry: Consider the molecule `O=C1C(=Cc2cccc3ccccc23)CCc2cc(OCCn3ccnc3)ccc21` and give its measured melting point.
Return: 147 to 148 °C

Enquiry: Consider the molecule CC(=C1CCc2cc(OCCc3c[nH]cn3)ccc2C1=O)c1ccccc1 (as salt: HCl) and give its measured melting point.
Return: 170 to 172 °C

Enquiry: Consider the molecule `O=C1C(=Cc2ccco2)CCc2cc(OCCc3c[nH]cn3)ccc21` and give its measured melting point.
Return: 57 to 60 °C

Enquiry: Consider the molecule `O=C1C(=Cc2ccc(-c3cccs3)s2)CCc2cc(OCCn3ccnc3)ccc21` and give its measured melting point.
Return: 180 to 181 °C
